Attribution: PubChem BioAssay (NCI)

growth values by entry
# Tested on: SF-268 CNS
# Measurement protocol: NCI-60 one-dose screen, 48 h (100 = growth as untreated, 0 = no growth, -100 = all killed)
# Test context: 10 µM unless noted
Compounds without any hit were thinned out: in the full panel of roughly 83,000, 20% have a hit.
Note: unit % is implicit; provide only the numeric part.

// solved cases for growth follow
>>> quantitative_result("O=CNc1cccc(-n2cnc3cc(-c4ccc(O)cc4)ccc32)c1")
40.7
>>> quantitative_result("C/C(=N/O)c1ccc(NC(=O)CSc2nnc(-c3ccc(-c4nc5ccc(Cl)cc5[nH]4)cc3)o2)cc1")
17.6
>>> quantitative_result("O=C(N=Nc1c(O)[nH]c2ccc(Br)cc12)c1ccc2nc(-c3ccc(Cl)cc3)[nH]c2c1")
-16.2
>>> quantitative_result("Cc1cc(C2(c3cc(C)c(OCC(O)CNc4c(C)n(C)n(-c5ccccc5)c4=O)cc3C(C)C)OC(=O)c3ccccc32)c(C(C)C)cc1OCC(O)CNc1c(C)n(C)n(-c2ccccc2)c1=O (stereo not drawn)")
32.6
>>> quantitative_result("COc1ccc2[nH]cc(-c3cc(N)n4nc(-c5c[nH]c6ccccc56)cc4n3)c2c1")
80.4
>>> quantitative_result("O=C(Nc1ccc(F)cc1)Nc1nc2ccc([N+](=O)[O-])cc2s1")
18

# input Under SF-268 CNS: growth value of COc1ccc([C@H]2C(C(=O)c3ccc(Cl)cc3)C3(N[C@@H]2c2ccccc2)C(=O)Nc2ccccc23)cc1 (stereo partly drawn) ?
# output 37.3

# input Write down the reported growth of Cn1cc(Nc2ncnc(-c3ccc(N4CCCC4)c(C#N)c3)n2)cn1 , test system: SF-268 CNS.
# output 71.9
